Recorded protein stability index values for a group of variants are listed next.
B1: PPP2R2C (parent)
chain: YSSSKGSLRLCDMRAAALCDKHSK

# Variants of: B1
# Assay remarks: protein stability index of a GFP-peptide fusion (GPS, HEK-293T) (PSI 1-6); higher = more stable;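 note: lentivirally expressed fusions sorted by FACS into six bins by GFP to DsRed ratio, PSI derived from sequencing read proportions per bin multiplied by bin number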
# Settings: c terminus: a fixed tail appended
Experimental endpoint: protein stability index

                    residue_string  value_reported
0  YSSSKGSLRLCDMPAAALCDKHSK [R14P]             1.8
1  YSSSKGSLRLCDMRYAALCDKHSK [A15Y]            2.34
2   YSSSKGSLLLCDMRAAALCDKHSK [R9L]            3.61
3  YSSSKGSLRLCDMRAAFLCDKHSK [A17F]            2.36
4   YSSSTGSLRLCDMRAAALCDKHSK [K5T]            2.23
